inhibition at 10 µM reference
# Tested on: MAPK phosphorylation in PANC-1 pancreatic cancer cell line
# METHOD: MAPK cell-based phosphorylation assay (cell-direct ELISA, EGF stimulation)
# CONDITION_SET: Homo sapiens, * = tested at 10 μM
READOUT_NAME: inhibition at 10 µM (%)

INSERT INTO assay_data (molecule, readout_name, recorded_number) VALUES
  ('Oc1nc(-c2ccccn2)nc2c(-c3cc(CN4CCCC4)ccc3F)csc12 [drawing 1263]', 'inhibition at 10 µM', 0),
  ('O=C(c1csc2c(O)nc(-c3ccccn3)nc12)N1CCNC(c2ccc(Cl)cc2)C1 (centres unmarked) [drawing 1285]', 'inhibition at 10 µM', 0);
